Source: BigSolDB 2.1

Conditions: in n-propanol, 288.15 K
MEASURED METRIC: solubility (mole fraction)
Give only the figure.

Documented solubility (mole fraction) of OC(Cc1ccccc1Cl)(Cn1[nH]cnc1=S)C1(Cl)CC1 (stereo unspecified) : 0.0161

----------
Details: in methanol, 308.15 K
MEASURED METRIC: solubility (mole fraction)

Lab book: solubility (mole fraction) of OC(Cc1ccccc1Cl)(Cn1[nH]cnc1=S)C1(Cl)CC1 (stereo unspecified) noted as 0.0307

----------
Conditions: in n-butanol, 298.15 K
MEASURED METRIC: solubility (mole fraction)
Please give the numeric answer without any surrounding text.

Sample OC(Cc1ccccc1Cl)(Cn1[nH]cnc1=S)C1(Cl)CC1 (stereo unspecified) ; solubility (mole fraction) observed: 0.0268
